Sourced from the NIST ThermoML archive (doi:10.1021/je030147g)

Would you mind telling me the reported refractive index of each entry?
Assay: refractive index (Na D-line) (dimensionless)
Conditions: 303.15 K; 101.33 kPa; Liquid
Answers are plain numbers.

Here is how some compounds turned out for refractive index.
(Q) Given the compound CCN(CC)CC , what is its reported refractive index?
(A) 1.3958

(Q) Given the compound ClC(Cl)=C(Cl)Cl , what is its reported refractive index?
(A) 1.5005

(Q) Given the compound c1ccncc1 , what is its reported refractive index?
(A) 1.5025

(Q) Given the compound C1CCOC1 [tetrahydrofuran] , what is its reported refractive index?
(A) 1.4026

(Q) Given the compound CCCCCCCCCCCCCC , what is its reported refractive index?
(A) 1.426

***
(Q) Given the compound ClC=C(Cl)Cl , what is its reported refractive index?
(A) 1.4722

* * *

Test: refractive index (Na D-line) (dimensionless)
Settings: 298.15 K; 101.33 kPa; Liquid
Would you mind telling me the reported refractive index of each entry?
One number for each entry.

Here is how some compounds turned out for refractive index.
(Q) Given the compound C1CCOC1 [tetrahydrofuran] , what is its reported refractive index?
(A) 1.4049

(Q) Given the compound ClC=C(Cl)Cl , what is its reported refractive index?
(A) 1.4752

Quick request: refractive index for each listed item, please.
1. CCCCCCCCCCCCCC
2. CCCCN(CCCC)CCCC
3. ClC(Cl)=C(Cl)Cl
4. CCN(CC)CC
5. c1ccncc1

(A)
1. 1.4282
2. 1.4276
3. 1.5036
4. 1.3992
5. 1.5062

* * *

Details: 303.15 K; 101.33 kPa; Liquid
Decision: mass density beneath 1000 kg/m3 gives YES; mass density meeting or exceeding 1000 kg/m3 gives NO.

(Q) Could you please tell me whether mass density recorded for C1CCOC1 [tetrahydrofuran] is less than 1000 kg/m3?
(A) YES

(Q) Could you please tell me whether mass density recorded for CCCCCCCCCCCCCC [tetradecane] is less than 1000 kg/m3?
(A) YES

(Q) Could you please tell me whether mass density recorded for ClC=C(Cl)Cl [trichloroethene] is less than 1000 kg/m3?
(A) NO

(Q) Could you please tell me whether mass density recorded for CCN(CC)CC [triethylamine] is less than 1000 kg/m3?
(A) YES

(Q) Could you please tell me whether mass density recorded for ClC(Cl)=C(Cl)Cl [tetrachloroethene] is less than 1000 kg/m3?
(A) NO

***
(Q) Could you please tell me whether mass density recorded for CCCCN(CCCC)CCCC [tributylamine] is less than 1000 kg/m3?
(A) YES

* * *

Would you mind telling me the reported refractive index of each entry?
Experiment: refractive index (Na D-line) (dimensionless)
Conditions: 308.15 K; 101.33 kPa; Liquid
Give bare numbers.

(Q) Given the compound CCCCCCCCCCCCCC , what is its reported refractive index?
(A) 1.4236

Quick request: refractive index for each listed item, please.
1. C1CCOC1 [tetrahydrofuran]
2. ClC(Cl)=C(Cl)Cl
3. CCCCN(CCCC)CCCC
4. CCN(CC)CC
5. ClC=C(Cl)Cl
6. c1ccncc1

(A)
1.3998
1.4978
1.4228
1.3929
1.469
1.5016

* * *

Would you mind telling me the reported viscosity of each entry?
Details: 308.15 K; 101.33 kPa; Liquid
One number for each entry, in mPa·s.

Here is how some compounds turned out for viscosity.
(Q) Given the compound CCCCCCCCCCCCCC , what is its reported viscosity?
(A) 1.653

(Q) Given the compound CCN(CC)CC , what is its reported viscosity?
(A) 0.332

(Q) Given the compound ClC=C(Cl)Cl , what is its reported viscosity?
(A) 0.549

Quick request: viscosity for each listed item, please.
1. ClC(Cl)=C(Cl)Cl
2. C1CCOC1 [tetrahydrofuran]

(A)
1: 0.791; 2: 0.439

(Q) Given the compound c1ccncc1 , what is its reported viscosity?
(A) 0.766
